# Tested on: OVCAR-5 ovarian
# experiment: NCI tumour cell line growth inhibition, 48 h
The reader will find reported TGI values listed item by item below.

Some solved cases for reference:
1. COc1ccc(OC)c(/C=C/C(=O)N/N=C/c2ccc(Cl)cc2)c1 :: > 100 µM
2. CC1=NN(c2ccccc2)C2(C1)C(Cl)C(=O)N2c1nc2ccccc2s1 (stereo not given) :: > 100 µM
3. O=C(O)CC1OCC=C2CN3CCC45c6ccccc6NC4C1C2CC35 (stereo not given) :: > 100 µM
4. CCOC(=O)/C(C#N)=C/Nc1c(C)n(C)n(-c2ccccc2)c1=O :: > 100 µM

Item O=S(=O)(O)CCSSCCS(=O)(=O)O was tested on OVCAR-5 ovarian; the reported TGI is > 1000 µM

----------
# Test system: UACC-257 melanoma
# experiment: NCI tumour cell line growth inhibition, 48 h
The reader will find reported TGI values listed item by item below.

Some solved cases for reference:
1) COC(=O)Nc1nc2ccc(Oc3ccc(NC(=O)Nc4ccccc4)cc3)cc2[nH]1 :: > 14.8 µM
2) CC(=O)NC1C(OCc2ccccc2)OC(CO)C(O)C1OC(C)C(=O)NC(C(=O)NC(CCC(=O)NCCCC(=O)Nc1ccc2c(c1)CN1C(=O)c3ccccc3C1=N2)C(N)=O)C(C)C (centres undefined) :: > 100 µM
3) COc1ccccc1C[C@@H]1OC2(C=CC(=O)CC2SC(=O)c2ccccc2)O[C@H]1Cc1ccccc1OC (some centres undefined) :: 3.02 µM
4) Cc1cc(SCC(=O)c2ccccc2)nc2ccccc12 :: > 100 µM
5) CC1=NN(c2cccc(S(=O)(=O)O)c2)C2(C1)C(Cl)C(=O)N2c1nc2ccccc2s1 (centres undefined) :: 28.3 µM

For reference, reported TGI for Cc1sc2nc(N(C)C)oc(=O)c2c1C stands at > 100 µM

For reference, reported TGI for NCc1ccc(-c2ccc(CN)s2)s1 stands at > 100 µM

For reference, reported TGI for O=C(O)CP(=S)(S)c1ccccc1 (centres undefined) stands at > 100 µM

For reference, reported TGI for CCN1C(=O)CNc2ncc(-c3ccc(-c4ncn[nH]4)nc3C)nc21 stands at 2.11 µM

For reference, reported TGI for CCS(=O)(=O)c1ccc(OC)c(Nc2ncc(-c3cccc(C(C)=O)c3)o2)c1 stands at > 25 µM

For reference, reported TGI for Fc1cc(F)c(COc2cc(Cn3cnc4c(Cl)nc(Cl)nc43)ccc2C23CC4CC(CC(C4)C2)C3)cc1F stands at 39.3 µM

For reference, reported TGI for CC[C@]12C=CCN3CC[C@@]4(c5cc(Br)c(OC)c([N+](=O)[O-])c5N(C)[C@H]4[C@@](O)(C(=O)OC)[C@@H]1OC(C)=O)[C@@H]32 stands at > 100 µM

For reference, reported TGI for CC(=O)OC1Oc2ccccc2-c2oc(=O)c(-c3cc4ccc(N(C)C)cc4oc3=O)cc21 (centres undefined) stands at 43.3 µM

For reference, reported TGI for COc1ccc(C2C(C(=O)O)=C(CO)Oc3cc4c(cc32)OCO4)cc1 (centres undefined) stands at > 100 µM

----------
The reader will find reported GI50 values listed item by item below.
# System: HCC-2998 colon
# experiment: NCI tumour cell line growth inhibition, 48 h

1) CC(C)c1ccc(C(=O)Nc2sc3c(c2C(N)=O)CCC(=O)C3)cc1 :: 1850 nM

For reference, reported GI50 for COc1cc(OC)c(/C=C/C(=O)c2c(OC)cccc2OC)c(OC)c1 stands at 1150 nM

For reference, reported GI50 for NC(=S)N/N=C/c1ccc(OC(=O)COc2ccc(Cl)cc2)cn1 stands at 8460 nM

For reference, reported GI50 for COc1cc(C2=NN(C(C)=O)C(c3ccc(OC(C)=O)cc3OC(C)=O)O2)c(OC(C)=O)c2ccccc12 (stereo not given) stands at 1030 nM

For reference, reported GI50 for Fc1cc(F)c(COc2cc(Cn3cnc4c(Cl)nc(Cl)nc43)ccc2C23CC4CC(CC(C4)C2)C3)cc1F stands at 18700 nM

----------
# System: RPMI-8226 leukemia
# experiment: NCI tumour cell line growth inhibition, 48 h
assayReadout: TGI

Some solved cases for reference:
1) Cc1ccccc1N(CCC#N)C1=NN(C(=O)CC(=O)Nc2ccccc2)C(c2ccccc2)C1 (stereo not drawn) :: > 100 µM
2) COc1ccc(C(=O)COc2cccc(/C=C3\COc4ccc5ccccc5c4C3=O)c2)cc1 :: 3.94 µM

// switching to the query molecule
For reference, reported TGI for CC[C@@]1(O)C(=O)OCc2c1cc1n(c2=O)Cc2c-1nc1ccccc1c2/C=N\NC(=O)C[n+]1ccccc1 stands at > 100 µM

----------
The reader will find reported TGI values listed item by item below.
# Test system: SW-620 colon
# experiment: NCI tumour cell line growth inhibition, 48 h

For reference, reported TGI for O=C1c2ccccc2-c2nnc(-c3ccc([N+](=O)[O-])cc3)cc21 stands at > 10 µM

For reference, reported TGI for CCOC(=O)C(Cc1ccc2ccccc2c1)(Cc1ccc2ccccc2c1)C(C)=O stands at > 10 µM

For reference, reported TGI for CC12CCCC(O)C1CCC1=CC3(CCC12)SCCS3 (stereo not drawn) stands at > 10 µM

----------
The reader will find reported TGI values listed item by item below.
# Tested on: 786-0 renal
# experiment: NCI tumour cell line growth inhibition, 48 h

1. CN(C)CCNC(=O)c1cccc(C(=O)Nc2ccccc2)c1[N+](=O)[O-] :: > 100 µM
2. CCCCN=C(N)c1ccc(OCCSCCOc2ccc(C(N)=NCCCC)cc2)cc1 :: > 100 µM
3. Cc1cc(SCC(=O)c2ccccc2)nc2ccccc12 :: > 100 µM
4. CCS(=O)(=O)c1ccc(OC)c(Nc2ncc(-c3cccc(OC)c3)o2)c1 :: > 25 µM
5. COC(=O)C1=CC2C(=O)c3ccccc3C1(c1ccccc1)N2C1CCCCC1 (stereo unspecified) :: > 100 µM

// switching to the query compound
For reference, reported TGI for CC(C)=CCC/C(=C/CC/C(C)=C/CCc1ccoc1)C(=O)O stands at > 100 µM

----------
# Test system: HCC-2998 colon
# experiment: NCI tumour cell line growth inhibition, 48 h
The reader will find reported TGI values listed item by item below.

Some solved cases for reference:
1. CC[C@@]1(O)C(=O)OCc2c1cc1n(c2=O)Cc2c-1nc1ccccc1c2/C=N\NC(=O)C[n+]1ccccc1 :: > 100 µM
2. N.N.N.N.N.O=C([O-])c1nn[n-]n1.[Cl-].[Co+3] :: > 100 µM
3. COc1cc[nH]c1/C=C1\C(=O)Nc2ccccc21 :: > 25 µM
4. COC(=O)C1C2OC(C)(C)OC2CN1S(=O)(=O)c1ccc(C)cc1 (centres undefined) :: > 100 µM
5. Cc1cccc(N/C(=C(/C(Cl)=C(Cl)Cl)[N+](=O)[O-])n2nnc3ccccc32)c1 :: > 100 µM
6. COc1ccc(NC(=S)Nc2cc(C)ccn2)cc1 :: > 100 µM

For reference, reported TGI for COc1ccc(CC2Cc3ccccc3CCN2)cc1OC (centres undefined) stands at > 50 µM

For reference, reported TGI for Cc1ccc(N(C(=O)CC(=O)NN)C(=O)c2ccccc2Cl)cc1 stands at > 100 µM

For reference, reported TGI for OCC1OC(NC(=S)NCCC(F)(F)C(F)(F)C(F)(F)C(F)(F)C(F)(F)C(F)(F)F)C(O)C(O)C1O (centres undefined) stands at > 100 µM

For reference, reported TGI for CC(=O)[CH-]C(=O)c1ccccc1.CC(=O)[CH-]C(=O)c1ccccc1.O=C([O-])c1ccc([O-])cc1.O=C([O-])c1ccc([O-])cc1.[Ti+4] stands at > 100 µM

For reference, reported TGI for CC(C)=CCC/C(=C/CC/C(C)=C/CCc1ccoc1)C(=O)O stands at > 100 µM

For reference, reported TGI for Cc1nc2ccccc2c(=O)n1NC(=O)c1ccccn1 stands at > 100 µM

----------
# System: MOLT-4 leukemia
# experiment: NCI tumour cell line growth inhibition, 48 h
The reader will find reported TGI values listed item by item below.

Some solved cases for reference:
1) CCOC1=NC(=O)CC(c2ccccc2)S1 (stereo unspecified) :: > 100 µM
2) COC(=O)Nc1nc2ccc(Oc3ccc(NC(=O)Nc4ccccc4)cc3)cc2[nH]1 :: > 10.3 µM
3) Cc1ccc2c(c1)C(=O)C1(C2)Cc2c(C)cccc2C1=O (stereo unspecified) :: > 100 µM

For reference, reported TGI for CCN(CC)c1sc(N(CC)CC)c2c1SSSSS2 stands at > 100 µM

For reference, reported TGI for CCOC(=O)/C(C#N)=C/Nc1c(C)n(C)n(-c2ccccc2)c1=O stands at > 100 µM

For reference, reported TGI for COC(=O)c1cccc2cccc(C(=O)Nc3ccc(C)cc3C)c12 stands at > 100 µM
